Ref: patent US10047131B2

tested_system: HLA-A*02:01 (Homo sapiens, UniProt P04439, D140Y/D185E/D98H/E176V/E277Q/G131W/G231S/I119V/I121R/I166T/I218V/L300P/L318F/N151K/N90K/P208A/P217A/Q86G/Q94H/R138H/R169H/T345S)
protocol_details: MHC binding assay (UV-ligand exchange, ELISA of exchange yield)
experimental_setup: binding to HLA-A*02:01, UV-ligand exchange
parameter_measured: Peptide exchange (MHC class I binding score, peptide exchange yield)

> print(dat)
                                   substance        reported.value
 1  449 (KLAEGLDIQL; listed as Homo sapiens) [compound 449]     “+++” (≥50 = +++)
 2  208 (KISPVTFSV; listed as Homo sapiens) [compound 208]     “+++” (≥50 = +++)
 3  248 (FLFPNQYVDV; listed as Homo sapiens) [compound 248]     “+++” (≥50 = +++)
 4  100 (YLLSTNAQL; listed as Homo sapiens) [compound 100]  “++++” (≥75% = ++++)
 5  60 (SLTIDGIYYV; listed as Homo sapiens) [compound 60]  “++++” (≥75% = ++++)
 6  198 (KTINKVPTV; listed as Homo sapiens) [compound 198]     “+++” (≥50 = +++)
 7  22 (IMEENPGIFAV; listed as Homo sapiens) [compound 22]     “+++” (≥50 = +++)
 8  104 (STMEQNFLL; listed as Homo sapiens) [compound 104]  “++++” (≥75% = ++++)
 9  303 (AILPQLFMV; listed as Homo sapiens) [compound 303]  “++++” (≥75% = ++++)
10  224 (TLIDAQWVL; listed as Homo sapiens) [compound 224]     “+++” (≥50 = +++)
11  5 (HLTEVYPEL; listed as Homo sapiens) [compound 5]     “+++” (≥50 = +++)
12  181 (LLWAGTAFQV; listed as Homo sapiens) [compound 181]     “+++” (≥50 = +++)
13  521 (MLLTKLPTI; listed as Homo sapiens) [compound 521]     “+++” (≥50 = +++)
14  35 (KINDTIYEV; listed as Homo sapiens) [compound 35]     “+++” (≥50 = +++)
15  554 (LLMPSSEDLLL; listed as Homo sapiens) [compound 554]     “+++” (≥50 = +++)
16  451 (LLLLDTVTMQV; listed as Homo sapiens) [compound 451]      “++” (≥20% = ++)
17  579 (NLMEMVAQL; listed as Homo sapiens) [compound 579]      “++” (≥20% = ++)
18  263 (LLVSNLDFGV; listed as Homo sapiens) [compound 263]     “+++” (≥50 = +++)
